These measurements were taken from ChEMBL document CHEMBL3507680.

- Method notes: Human HepG2 cell viability assay in 384 well format
- Type: toxicity, cell-based
- Parameters: dose 125 nL, time 70.5 hour; concentration not given beside the values
- Measurement parameters: HepG2 cells, read-out: Inhibition
Exercise: state measured cytotoxicity at 70.5 h for each of the molecules provided.
Could you give me the number in %? Just the number is fine.

# input Please report the measured cytotoxicity at 70.5 h for OC(COc1ccccc1)CN1CCC(c2ccn[nH]2)CC1 (stereo unspecified)
# output -13.1

# input Name the recorded cytotoxicity at 70.5 h of the molecule listed here: `CC(C)c1nn(C)c(N(C)C)c1CNCc1ccc(N(C)C)nc1`
# output 3.68

# input Tell me its cytotoxicity at 70.5 h given CSC(C)C(=O)N(C)C1CCN(c2ccc(Cl)cc2)CC1 (stereo unspecified) as the entry.
# output 2.45

# input Using known records, supply cytotoxicity at 70.5 h for `CCNc1nc(C)c(C(=O)N(C)Cc2noc(C)n2)s1`
# output 11.7

# input Name the recorded cytotoxicity at 70.5 h of the molecule listed here: CC(C)Oc1ccccc1C1CC(=O)Nc2c1cnn2C (stereo unspecified)
# output -11.9

# input Please supply the value of reported cytotoxicity at 70.5 h for the item `CN(Cc1ccc(Cl)s1)C(=O)NCc1nnc2n1CCC2`
# output 2.59
